Reference source for all entries: PubChem BioAssay (NCI)

- System: SNB-75 CNS
- Procedure Summary: NCI tumour cell line growth inhibition, 48 h; in the data active = GI50 below about 0.43 µM; inactive = the rest
Just give me one of these, please: yes (active), no (inactive)

// query Fill in: this test's call for O=c1ncc(-c2ccc(C(F)(F)F)cc2)c(NC2CCCCCC2)[nH]1 is ___
// result no

// query Please share the test call associated with C[C@H]1CCC/C=C/[C@@H]2C[C@H](O)C[C@H]2[C@H](O)[C@H](S(=O)c2ccc(O)cc2)CC(=O)O1 (some centres undefined) .
// result yes

// query Query: recorded result category for CC(=O)O[C@H](C[C@H](C(C)C)N(C)C(=O)[C@@H](NC(=O)[C@H]1CCCCN1C)C(C)C)c1nc(C(=O)N[C@@H](Cc2ccccc2)C[C@H](C)C(=O)O)c(C)s1 in this test
// result yes

// query How did this test come out for COc1ccc(C(=S)c2cc(OC)c(OC)c(OC)c2)cc1OC(=O)CCl ?
// result yes

###

Examples of molecules with documented TGI follow.
- Tested on: OVCAR-5 ovarian
- Procedure Summary: NCI tumour cell line growth inhibition, 48 h

Would you please look over these solved cases?
Molecule	Measured Target	TGI
COC(=O)c1ccccc1C1CN=NC12Cc1c(C)cc(C)cc1C2=O (stereo unspecified)	OVCAR-5 ovarian	> 100 µM
CC(C)C1C(=O)N2CCCC2C2(O)OC(NC(=O)C3C=C4c5cccc6[nH]cc(c56)CC4N(C)C3)(C(C)C)C(=O)N12 (stereo unspecified)	OVCAR-5 ovarian	29.7 µM
NC1=NC(=O)N2CC12 (stereo unspecified)	OVCAR-5 ovarian	528 µM
Cc1c(O)c(OC2OC(CO)C(O)C(O)C2O)cc2c1CC[C@@H]1C2(C)C(=O)C[C@]2(C)[C@@H]([C@@](C)(O)C(O)/C=C/C(C)(C)O)[C@H](O)C[C@@]12C (stereo partly specified)	OVCAR-5 ovarian	> 100 µM

// query Please give the measured TGI for this molecule: CCN(Cc1ccc(F)cc1)c1ccc(CO)c(Cl)c1
// result 0.525 µM

// query # get_value(readout='TGI', item= CN(C(=O)OC(C)(C)C)[C@H]1CCCC[C@H]1N1CCCC1 )
// result > 100 µM

// query Given the molecule CC1(C)SC2C(C(=O)O)N=C(Cc3ccccc3)N2C1C(=O)O (stereo unspecified) , what is its reported TGI?
// result > 100 µM

// query Would you kindly share the measured TGI for O=C(NO)c1cccc(OCc2ccc(Br)cc2)c1 ?
// result > 70.7 µM

// query Returns the measured TGI for the input molecule. Input: CCCCCCNC(=O)c1cc(NCc2cc(OC)ccc2OC)ccc1O
// result > 100 µM

// query Data request, read-out TGI, for N=c1c2c(ncn1N)Oc1c(c(-c3ccccc3)nn1-c1ccccc1)C2c1ccc(Cl)cc1 (stereo unspecified)
// result 2.93 µM

// query Quick one: TGI of CS(=O)(=O)c1nc(N)nc2nc[nH]c12 ?
// result > 100 µM

// query Suppose we examine the molecule CC(N)Cc1cccc(C(F)(F)F)c1 (stereo unspecified) ; what TGI value has been reported?
// result > 100 µM

###

- System: OVCAR-5 ovarian
- Procedure Summary: NCI tumour cell line growth inhibition, 48 h; in the data active = GI50 below about 0.43 µM; inactive = the rest
Can you answer with just one of these options? active, inactive

Before answering, review these 4 worked examples.
Compound	Group
COc1cc(N2CCC(N3CCN(C)CC3)CC2)ccc1Nc1ncc(Cl)c(Nc2ccccc2P(C)(C)=O)n1	active
COc1ccc(C(=S)c2cc(OC)c(OC)c(OC)c2)cc1OC(=O)CCl	inactive
O=S(=O)(/C=C/C=C/S(=O)(=O)c1ccccc1)c1ccccc1	inactive
O=c1ncc(-c2ccc(C(F)(F)F)cc2)c(NC2CCCCCC2)[nH]1	inactive

// query Status in this test for COc1ccc(-c2cc(-c3ccc(Nc4nc(Nc5ccc(Cl)cc5)nc(Nc5ccc(Cl)cc5)n4)cc3)no2)cc1 ?
// result inactive

// query I'd appreciate the recorded outcome for COc1cccc(-c2nn(-c3ccccc3)cc2-c2ccnc(NCCNS(=O)(=O)c3ccc(C(F)(F)F)cc3)c2)c1 from this test.
// result inactive

// query # lookup: test call for CCN(Cc1ccc(F)cc1)c1ccc(CO)c(Cl)c1
// result active

// query I'd appreciate the recorded outcome for COc1cc2c(c(OC)c1OC)-c1ccc([O-])c(=O)cc1[C@@H](NC(C)=O)CC2.COc1cc2c(c(OC)c1OC)-c1ccc([O-])c(=O)cc1[C@@H](NC(C)=O)CC2.[Cu+2] from this test.
// result inactive

// query Dear all, I need the recorded test outcome for COc1ccc(-c2coc3ncnc(N)c23)cc1 , thank you.
// result inactive

###

- Tested on: KM12 colon
- Procedure Summary: NCI tumour cell line growth inhibition, 48 h
Observable: TGI

Compound	Data Value
C=CCNC1=C2C[C@@H](C)C[C@@H](OC)[C@H](OC(=O)CN(C)C)[C@H](C)/C=C(\C)[C@@H](OC(N)=O)[C@H](OC)/C=C\C=C(/C)C(=O)NC(=CC1=O)C2=O	0.274 µM
CCCCOC(=O)CN1C(=O)c2ccccc2C1=O	> 100 µM
CCCCCCCCCCCCCCCCC1=CC(=O)C=C(OC)C1=O	> 100 µM
COc1cc(CC2CCc3nc(N)nc(N)c3C2)cc(OC)c1OC (centres undefined)	> 100 µM
CCCCCCCC1c2cc3[nH]c(cc4nc(cc5[nH]c(cc(n2)[C@@]1(C)CC(=O)N(C)C)c(C)c5CCC(=O)O)C(CCC(=O)O)=C4C)cc3C (some centres undefined)	58.5 µM
Cc1cc(C)c(C(=O)O)c(N)c1O	> 100 µM
COc1ccccc1C1C2=C(COC2=O)OC(C)(C)Oc2cc3c(cc21)OCO3 (centres undefined)	11.4 µM
O=C(O)C(Cc1cccs1)NC(=O)C(F)(F)F (centres undefined)	> 100 µM
COc1cc(N2CCC(N3CCN(C)CC3)CC2)ccc1Nc1ncc(Cl)c(Nc2ccccc2P(C)(C)=O)n1	> 100 µM
C[C@]12CCC[C@H](OC=O)C1(O)C[C@H](C(=O)O)CC2 (some centres undefined)	> 100 µM

// query Give its TGI value. Item: CCOC(=O)Cc1ccc(Nc2nc3cc(C(F)(F)F)ccc3nc2C(=O)OCC)cc1
// result > 100 µM

// query // TGI lookup, key: CC(N)Cc1cccc(C(F)(F)F)c1 (centres undefined)
// result > 100 µM

###

- System: UO-31 renal
- Procedure Summary: NCI tumour cell line growth inhibition, 48 h
Observable: TGI

Some compounds with recorded TGI:
>>> print(df.to_string())
                                   compound  measured_target  data_value
0  c1ccc(COCC23CCN(Cc4ccccc4)C(CC(OCc4ccccc4)C2)S3)cc1 (stereo unspecified)      UO-31 renal    > 100 µM
1           O=C(NO)c1cccc(OCc2ccc(Br)cc2)c1      UO-31 renal     14.4 µM
2  CC12CN(CC[N+](C)(C)C)CC1(C)C1CCC2O1 (stereo unspecified)      UO-31 renal    > 100 µM
3  Cc1ccc(SCC(OCn2cnc3c(N)ncnc32)[C@H](C)F)cc1 (stereo partly specified)      UO-31 renal    > 100 µM

// query Query (compound): O=C1C(=O)c2cc([N+](=O)[O-])ccc2-c2ccccc21 ; field requested: TGI
// result 2.86 µM

// query What value of TGI has been recorded for this entry: CCCCCCCCCCCCCOC(=O)c1c(C)[nH]c(/C=C2\N=C(c3ccc[nH]3)C=C2OC)c1C
// result 0.443 µM

// query Quick one: TGI for CN1CCC23c4c5ccc(O)c4OC2C(=NN=C2CCC4(O)C6Cc7ccc(O)c8c7C4(CCN6C)C2O8)CCC3(O)C1C5 (stereo unspecified) ?
// result > 100 µM

// query // returns reported TGI for input CCCCOC(=O)CN1C(=O)c2ccccc2C1=O
// result > 100 µM

// query Record request: TGI value, item COC(=O)/C=C\c1ccc2c(c1)CC1(C2)Cc2ccc(/C=C/C(=O)OC)cc2C1 (stereo unspecified)
// result > 31.6 µM

// query I would be grateful if you could share the reported TGI for CC(C#N)c1cn(S(=O)(=O)c2ccccc2)c2ccccc12 (stereo unspecified) .
// result 62.4 µM

// query Which value of TGI has been reported for CCOC(=O)c1ccc2c(c1)nc1n2C(c2c(F)cccc2F)SC1 (stereo unspecified) in the records?
// result > 100 µM

// query Need TGI of C[C@H](c1ccc(Cl)cc1N)N1C(=O)c2cc(I)ccc2N(CCCN2CCN(C)CC2)C(=O)[C@@H]1c1ccc(Cl)cc1 , thanks.
// result 1.9 µM

// query Suppose we examine the compound Nc1ncc(-c2cnn(C3CCNCC3)c2)cc1-c1nc2ccccc2o1 ; what TGI value has been reported?
// result 2.35 µM

// query Give the measured TGI of O=c1oc2ccc(Cl)cc2c(=O)n1-c1ccc(Cl)cc1F .
// result 1.62 µM

// query Quick one: TGI of CN1CCN(C(=O)c2ccc(NC(=O)Nc3ccc(N(C)c4ccnc(Nc5ccc(CS(C)(=O)=O)cc5)n4)cc3)cc2)CC1 ?
// result > 25 µM

// query Requested read-out: TGI. Entry: Cc1cc(C)c(C(=O)O)c(N)c1O
// result > 100 µM
